Details: PAMPA
recorded endpoint: log PABL
// keep it numeric: no unit symbol after the value

Challenge: Give recorded log PABL. "N[C@@H](Cc1ccc(N(CCCl)CCCl)cc1)C(=O)O"
Response given: −4.65

Challenge: Give recorded log PABL. "OCCOCCN1CCN(C2=Nc3ccccc3Sc3ccccc32)CC1"
Response given: −3.88

Challenge: Give recorded log PABL. "CN1CCN(C2=Nc3cc(Cl)ccc3Nc3ccccc32)CC1"
Response given: −3.37

Challenge: Give recorded log PABL. "CC[C@]1(O)C[C@@H]2CN(CCc3c([nH]c4ccccc34)[C@@](C(=O)OC)(c3cc4c(cc3OC)N(C)[C@H]3[C@@](O)(C(=O)OC)[C@H](OC(C)=O)[C@]5(CC)C=CCN6CC[C@]43[C@@H]65)C2)C1"
Response given: −3.25

---

Conditions: PAMPA
Recorded measurements of log PABL, one per entry
// keep it numeric: no unit symbol after the value

# count of solved cases: 5
- molecule: "OCCN1CCN(CCCN2c3ccccc3Sc3ccc(Cl)cc32)CC1"
  recorded endpoint: "log PABL"
  value observed: "−3.42"
- molecule: "CN1CCN2c3ncccc3Cc3ccccc3C2C1 (stereo not drawn)"
  recorded endpoint: "log PABL"
  value observed: "−3.37"
- molecule: "CNCCCC12CCC(c3ccccc31)c1ccccc12"
  recorded endpoint: "log PABL"
  value observed: "−3.21"
- molecule: "CCCN(CCC)S(=O)(=O)c1ccc(C(=O)O)cc1"
  recorded endpoint: "log PABL"
  value observed: "−3.52"
- molecule: "O=C1NC(=O)C(c2ccccc2)(c2ccccc2)N1"
  recorded endpoint: "log PABL"
  value observed: "−4.51"

Turning now to a further record.
Challenge: Give recorded log PABL. "CN1C[C@H](C(=O)N[C@]2(C)O[C@@]3(O)[C@@H]4CCCN4C(=O)[C@H](Cc4ccccc4)N3C2=O)C=C2c3cccc4[nH]cc(c34)C[C@H]21"
Response given: −3.73

---

Recorded measurements of log Ppara, one per entry
Details: PAMPA
// keep it numeric: no unit symbol after the value

- compound: "COc1ccc(CCN2CCC(Nc3nc4ccccc4n3Cc3ccc(F)cc3)CC2)cc1"
  log Ppara: "−6.54"
- compound: "OCCOCCN1CCN(C2=Nc3ccccc3Sc3ccccc32)CC1"
  log Ppara: "−6.02"
- compound: "CC(C)(C)c1ccc(C(O)CCCN2CCC(C(O)(c3ccccc3)c3ccccc3)CC2)cc1 (centres unmarked)"
  log Ppara: "−5.70"

Challenge: Give recorded log Ppara. Cc1cc(=O)n(-c2ccccc2)n1C [Antipyrine]
Response given: −6.86

Challenge: Give recorded log Ppara. "CN1C[C@H](C(=O)N[C@]2(C)O[C@@]3(O)[C@@H]4CCCN4C(=O)[C@H](Cc4ccccc4)N3C2=O)C=C2c3cccc4[nH]cc(c34)C[C@H]21"
Response given: −6.03

Challenge: Give recorded log Ppara. "COc1cccc2c1C(=O)c1c(O)c3c(c(O)c1C2=O)C[C@@](O)(C(C)=O)C[C@@H]3O[C@H]1C[C@H](N)[C@H](O)[C@H](C)O1"
Response given: −6.91

Challenge: Give recorded log Ppara. CN(C)C(=O)C(CCN1CCC(O)(c2ccc(Cl)cc2)CC1)(c1ccccc1)c1ccccc1 [Loperamide]
Response given: −12

Challenge: Give recorded log Ppara. "COc1ccc2c3c1O[C@H]1C[C@@H](O)C=C[C@@]31CCN(C)C2"
Response given: −7.73

The origin of these recorded values is paper PMC3034772.
